Target: recombinant CD81-LEL (Homo sapiens)
Construct: the large extracellular loop of CD81 (CD81-LEL); GST; His; Shoshana Levy Lab, Stanford (gift)
Sequence (P60033 113-201 limits assumed): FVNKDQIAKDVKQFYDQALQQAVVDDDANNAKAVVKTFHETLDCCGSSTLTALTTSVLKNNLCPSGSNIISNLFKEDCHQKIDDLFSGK
Experiment: SPR (Biacore T100) binding of additional ligands to immobilized CD81-LEL (Example 6)
Conditions: Table E, ligand 200 uM in PBS-1% DMSO
value.type: Binding (RU)
Please reply with the bare figure in RU and do not write the unit itself.

Examples with answers:
[[record]]
compound = "N=C(N)Nc1ccc(NC(=N)N)cc1"
unit_label = "RU"
result = 17.4

[[record]]
compound = "O=C(O)c1[nH]c(=O)[nH]c(=O)c1F"
unit_label = "RU"
result = 4.1

[[record]]
compound = "O=C(O)c1cc(O)ccc1/N=N/c1ccccc1"
unit_label = "RU"
result = 11.6

[[record]]
compound = "CCCCNCC1CCCO1 (centres unmarked)"
unit_label = "RU"
result = 4.2

[[record]]
compound = "CCOc1cccc2cc(C(N)=O)c(=N)oc12"
unit_label = "RU"
result = 3.4

[[record]]
compound = "CCNc1nc(Cl)nc(-c2cn(-c3ccccc3)c3ccccc23)n1"
unit_label = "RU"
result = 2.5


// below: Binding (RU) requested for another compound
Challenge: Record request: Binding (RU) value, item O=C(O)/C=C\C(=O)Nc1cccc2cccnc12
Response given: 4.1
